Tested on: NCI/ADR-RES ovarian
Assay Text: NCI-60 one-dose screen, 48 h (100 = growth as untreated, 0 = no growth, -100 = all killed)
Condition Summary: 10 µM unless noted
Compounds without any hit were thinned out: in the full panel of roughly 83,000, 20% have a hit. Calls of active or inactive are those of the source. How the source made its calls: active means growth percent below 10; inactive means the rest.
Below, each of the molecules is paired with its reported growth value.

Molecule	System	growth
CCn1cnc(C[C@H](NC(=O)[C@@H](NC(=O)Nc2cc(C(F)(F)F)cc(C(F)(F)F)c2)C(C)C)C(=O)OC)c1	NCI/ADR-RES ovarian	0.865% [100 µM] (active)
Oc1ccc(Br)cc1/C=N/NC(=S)NC12CC3CC(CC(C3)C1)C2	NCI/ADR-RES ovarian	-3.63% (active)
CCn1cc(C(=O)O)c(=O)c2cc(F)c(N3CCN(S(=O)(=O)c4ccc(Cl)cc4)CC3)cc21	NCI/ADR-RES ovarian	68.7% (inactive)
COc1ccc(CN2C(=O)/C(=C\C(=O)c3ccc(OCCN4CCCC4)cc3)c3ccccc32)cc1	NCI/ADR-RES ovarian	85.8% (inactive)
COc1ccc2sc(-n3nc4nc5n(c(=O)c4c3N)-c3ccccc3Sc3ccccc3-5)nc2c1	NCI/ADR-RES ovarian	74% (inactive)
CCCNC(=O)Oc1ccc(/C(=C(/CC)Cc2ccccc2)c2ccc(OCCN(CC)CC)cc2)cc1	NCI/ADR-RES ovarian	75.3% (inactive)
CCCCCCC(C(=O)OCC)(C(=O)OCC)C1CCCCCC1	NCI/ADR-RES ovarian	106% (inactive)
COC(=O)C(C)[C@H]1CC[C@@H]2[C@]1(C)CC=C1[C@]23C=C[C@]2(C[C@@H](OC(C)=O)CC[C@]12C)C(C(=O)OC)C3C(=O)OC (stereo partly drawn)	NCI/ADR-RES ovarian	94.3% (inactive)

###

System: SF-268 CNS
Assay Text: NCI-60 one-dose screen, 48 h
Condition Summary: 10 µM unless noted
This is part of a sample that, as a whole, favours compounds with a hit. Of some 83,000 tested, about 20% had one in any assay. The source made the active and inactive calls. Rule for the calls: active = growth percent below 10; inactive = the rest.
Classes used: 1.0 (active), 0.0 (inactive)

Compound	Discrete Label
C=C(C)C(C(=O)OCC)(C(=O)OCC)C(C)C	0.0
CCOC(=O)c1ccc2n1CCCc1cnc(NC(C)=O)nc1-2	0.0
CCOc1nc(-c2ccccc2)cc2c(O)c(C(=O)N/N=C/c3ccccc3O)[nH]c(=O)c12	0.0
COC(c1ccccc1)C(Br)C(=O)c1ccccc1 (stereo not drawn)	0.0
CCCCCCCCCCCCCCCCNC(=S)N/N=C/c1ccc(OC)cc1	0.0
O=C(Nc1ccccc1)Nc1ccc(Nc2ncnc3sc4c(c23)CCCC4)cc1	0.0
CC(=O)c1cc(Nc2cc(C)nc(N)n2)cc(C(C)=O)c1	0.0
COc1cc(-c2nn(-c3ccc(NC(=O)c4ccc(Cl)c(C(F)(F)F)c4)cc3)cc2-c2ccncc2)ccc1Cl	0.0
COC(=O)c1cc(O)c2cc3c(cc2c1-c1cc(OC)c(OC)c(OC)c1)OCO3	0.0
COc1ccc2cc(C(C)C(=O)Nc3ccc(S(=O)(=O)Nc4cc(C)on4)cc3)ccc2c1 (stereo not drawn)	0.0
O=C(CCl)NC1c2ccccc2Oc2ccccc21	0.0
Nc1nc2c(c3cnccc13)C(c1cccc(Br)c1)Cc1cnccc1-2 (stereo not drawn)	0.0
COc1cc(-c2nn(-c3ccc(NC(=O)c4ccc(Cl)c(Cl)c4)cc3)cc2-c2ccncc2)ccc1Cl	0.0
CCCCCCCCCCC(C[N+](C)(C)C/C=C/c1ccccc1)C(O)c1ccccc1 (stereo not drawn)	1.0
CC(O)CN(CC(C)O)N(CC(C)O)CC(C)O (stereo not drawn)	0.0
Oc1ccccc1/C=N/N=C/c1c(O)ccc2ccccc12	0.0
CC1(C)N=C(N)N=C(N)N1c1cccc(CCCCOc2ccccc2)c1	0.0
Cc1sc(NC(=O)c2ccc(C(C)(C)C)cc2)c(C(=O)O)c1C	0.0
COc1ccc(CN2C(=O)/C(=C\C(=O)c3ccc(OCCN4CCCCC4)cc3)c3ccccc32)cc1	0.0
CC(=O)NNC(=O)c1sc(NC(C)=O)nc1C	0.0
N/C(=N\O)c1ccncc1	0.0
CCCCCCN(CCCCCC)CCC(=O)Nc1ccc(S(=O)(=O)c2ccc(NC(=O)CCN(CCCCCC)CCCCCC)cc2)cc1	0.0
CCOC(=O)c1cc(C(=O)c2ccc(Br)cc2)n2cc(C)cc(C)c12	0.0
CC([C@H]1CCC2C3CCC4C[C@@H](N)CC[C@]4(C)C3CC[C@@]21C)N(C)C (stereo partly drawn)	0.0
CC1CCCCC[N+]12CCCC2 (stereo not drawn)	0.0
CCN(CCO)CCNc1ccc(C)c2sc3cc(OC)ccc3c(=O)c12	0.0
C/C(=N\Nc1ccc(Cl)cn1)c1ccc2ccccc2n1	0.0
CCN(CC)CCCC(C)Nc1c(C)cnc2cc(Cl)c(C)cc12 (stereo not drawn)	0.0
COc1cc(-c2cc3cnccc3c3nc(N)c4ccncc4c23)cc(OC)c1OC	0.0
O=C(CN1CCN(c2cccc(Cl)c2)CC1)N1CCN(c2nnc(-c3ccc(Cl)cc3)c(-c3ccc(Cl)cc3)n2)CC1	0.0
N#CCc1ncc(-c2ccc(C(F)(F)F)cc2)c(NC2CCCCCC2)n1	0.0
O=CN/N=C/c1ccc(Cl)c([N+](=O)[O-])c1	0.0
CCOC(=O)/C(C#N)=C(/CC)OCC	0.0
O=C1NCCN1/N=C/c1c(Cl)nc2n1CCS2	0.0
O=C(/C=C/c1c[nH]c2ccccc12)c1cc2ccccc2o1	0.0
O=c1c2c(c3ccccc3n1-c1ccccc1)NC(=S)NC2c1ccc(Cl)cc1 (stereo not drawn)	0.0
COC(=O)c1ccc2[nH]c(O)c(C(=Nc3ccc(N(C)C(=O)CN4CCN(C)CC4)cc3)c3cccc(OC)c3)c2c1	1.0
O=C(OCC1CC2(Cl)C(Cl)=C(Cl)C1(Cl)C2(Cl)Cl)C1C(C(=O)OCC2CC3(Cl)C(Cl)=C(Cl)C2(Cl)C3(Cl)Cl)C2(Cl)C(Cl)=C(Cl)C1(Cl)C2(Cl)Cl (stereo not drawn)	0.0
CCCCCCCCCCCCOC(=N)N(C)C	0.0
Nc1cc(N)c2nc(NCCc3ccc(Cl)c(Cl)c3)cnc2c1	0.0
CC1(C)CC(=O)C2=C(C1)Oc1nc(N)c(C#N)c(N)c1C2c1ccc(F)cc1 (stereo not drawn)	0.0
COc1cccc(NC(=O)NCCNc2nccc(-c3c(-c4ccc(F)cc4)nc4sccn34)n2)c1	0.0
CNc1nc2ncn(C)c2c(=O)[nH]1	0.0
